Sourced from ChEMBL document CHEMBL1125383

Exercise: for every item that follows, state its recorded logP.
assay: Partition coefficient (logP); type: physicochemical; settings: octanol/water
Numbers only.

[
  {
    "smilesStructure": "COc1ccc([C@@H]2Cc3c(cccc3C(F)(F)F)N(CCN(C)C)C(=O)[C@@H]2O)cc1",
    "logP": 2.1
  },
  {
    "smilesStructure": "COc1ccc([C@@H]2Cc3c(C(N)=O)cccc3N(CCN(C)C)C(=O)[C@@H]2OC(C)=O)cc1",
    "logP": -1
  },
  {
    "smilesStructure": "COc1ccc([C@@H]2Cc3c(cccc3C(F)(F)F)N(CCN(C)C)C(=O)[C@@H]2Cc2ccccc2)cc1",
    "logP": 5.2
  }
]

Please look at the items below and tell me logP for each one, in order.
1. COc1ccc([C@@H]2Cc3cc(OCc4ccccc4)ccc3N(CCN(C)C)C(=O)[C@@H]2OC(C)=O)cc1
2. CCC[C@H]1C(=O)N(CCN(C)C)c2cccc(C(F)(F)F)c2C[C@H]1c1ccc(OC)cc1
3. CNC(=O)Oc1ccc2c(c1)C[C@@H](c1ccc(OC)cc1)[C@@H](OC(C)=O)C(=O)N2CCN(C)C
4. COc1ccc([C@@H]2Cc3cc(SC(C)(C)C)ccc3N(CCN(C)C)C(=O)[C@@H]2OC(C)=O)cc1
5. COc1ccc([C@@H]2Cc3c(C(=O)O)cccc3N(CCN(C)C)C(=O)[C@@H]2OC(C)=O)cc1

3.4
4.9
0.31
3.6
-4.1

----------
molecular target: Voltage-gated L-type calcium channel (Rattus norvegicus, UniProt P22002+Q02485+P27732); assay: Percentage decrease in blood pressure at a dose of 135 uM/kg for 6-12 hr in spontaneously hypertensive rats.; assay type: functional, tissue-based
reportedMetric: Decrease in blood pressure (%)
Answers are plain numbers, in %.

[
  {
    "compound": "COc1ccc([C@H]2CC(=O)N(CCN(C)C)c3cccc(C(F)(F)F)c3C2)cc1",
    "target": "Voltage-gated L-type calcium channel (Rattus norvegicus, UniProt P22002+Q02485+P27732)",
    "displayUnit": "%",
    "Decrease in blood pressure": 3
  },
  {
    "compound": "CCOC(=O)c1cccc2c1C[C@@H](c1ccc(OC)cc1)[C@@H](OC(C)=O)C(=O)N2CCN(C)C",
    "target": "Voltage-gated L-type calcium channel (Rattus norvegicus, UniProt P22002+Q02485+P27732)",
    "displayUnit": "%",
    "Decrease in blood pressure": 6
  }
]

Count: 6. Required value per item: Decrease in blood pressure.
1. COc1ccc([C@@H]2Cc3cc(SC)ccc3N(CCN(C)C)C(=O)[C@@H]2OC(C)=O)cc1
2. COc1ccc([C@@H]2Cc3c(cccc3C(F)(F)F)N(CC[N+](C)(C)C)C(=O)[C@@H]2C)cc1.[I-]
3. COc1ccc([C@@H]2Cc3c(cccc3C(F)(F)F)N(CC(C)N(C)C)C(=O)[C@@H]2C)cc1 (stereo in doubt; 15m)
4. C[C@H]1C(=O)N(CCN(C)C)c2cccc(C(F)(F)F)c2C[C@H]1c1ccc(O)cc1
5. C=CCN(C)CCN1C(=O)[C@H](OC(C)=O)[C@H](c2ccc(OC)cc2)Cc2c1cccc2C(F)(F)F
6. COc1ccc([C@@H]2Cc3c(cccc3C(F)(F)F)N(CCN(C)C)C(=O)[C@@H]2C)cc1OC

1. 20
2. 22
3. 16
4. 5
5. 26
6. 5

Provide each entry's Decrease in blood pressure from the list below.
1. COc1ccc([C@@H]2Cc3c(cccc3C(F)(F)F)N(CCN(C)CCCCc3ccccc3)C(=O)[C@@H]2OC(C)=O)cc1
2. CNc1ccc([C@@H]2Cc3c(cccc3C(F)(F)F)N(CCN(C)C)C(=O)[C@@H]2C)cc1
3. COc1ccc([C@@H]2Cc3c(C(=O)O)cccc3N(CCN(C)C)C(=O)[C@@H]2OC(C)=O)cc1
4. CNCCN1C(=O)[C@H](OC(C)=O)[C@H](c2ccc(OCCOC)cc2)Cc2c1cccc2C(F)(F)F
5. COc1ccc([C@@H]2Cc3c(ccc(Br)c3OC)N(CCN(C)C)C(=O)[C@@H]2C)cc1
6. COc1ccc([C@@H]2Cc3cc(OC(F)F)ccc3N(CCN(C)C)C(=O)[C@@H]2OC(C)=O)cc1
7. COc1ccc([C@@H]2Cc3cc(OCc4ccccc4)ccc3N(CCN(C)C)C(=O)[C@@H]2OC(C)=O)cc1
8. COc1ccc([C@@H]2Cc3c(cccc3C(F)(F)F)N(CCN3CCCC3)C(=O)[C@@H]2C)cc1

[23, 18, 9, 5, 12, 13, 10, 10]

Short answer please: Decrease in blood pressure, Voltage-gated L-type calcium channel (Rattus norvegicus, UniProt P22002+Q02485+P27732), entry `COc1ccc([C@@H]2Cc3c(Cl)cccc3N(CCN(C)C)C(=O)[C@@H]2OC(C)=O)cc1`
8
